From: patent US20240309109A1

Molecular target: T1, human CD38 Fc-fusion aa 45-300 (human, UniProt P28907 45-300)
T1 construct: Expressed in HEK293 behind a human Vkappa leader, which is left out here; also called CD38-Fc fusion protein; CD38 Fc-Fusion protein
Assay: SPR (Biacore), Fab on immobilized CD38 Fc-fusion
recorded-endpoint: Kd (nM)
Provide the reading as a plain figure in nM.

Record request: Kd value, item MOR03102 Fab (Fab, V domains shown, Fab format) VH: QVQLQESGPGLVKPGETLSLTCTVSGGSISGNYWSWIRQAPGKGLEWIGDYHGSTYYNPSLKGRVTISVDTSKNQFSLKLSSVTAEDTAVYYCAREQYHWGLAWTGFDNWGQGTLVTVSS VL: DIELTQPPSVSVAPGQTARISCSGDNLGHYYVSWYQQKPGQAPVLVIYDDSDRPSGIPERFSGSNSGNTATLTISGTQAEDEADYYCGAYAMHMTVFGGGTKLTVLG
64
